Test system: LXRb homodimer (NR concentration 270 nM)
Assay: PBM binding z-score (relative to random genomic background probes); higher = stronger binding; sequences stand for … in GC…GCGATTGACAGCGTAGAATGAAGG
Task for the reader: assign each of the following sequences its reported PBM binding z-score.

If you can, please state the reported PBM binding z-score value of `CGAACTTGGTCAAGGACAGTGAATCTCCGCACGC` . -1.03

Try this sequence next: `GCTTACGCGTCAAAGGTTATAGCATGAATAGAAT` -0.553

Try this sequence next: `TCTTGTAGTTCAACAGGAGGTTAAGAAAGATCGA` 0.269

Try this sequence next: `CCAGACAGGTGCGAAGGTAACTCAGCCTCGATTA` -0.755

Try this sequence next: `ATATGTAGGTTATCGGGTCATTCAATTTGCGCAT` 0.979

Try this sequence next: `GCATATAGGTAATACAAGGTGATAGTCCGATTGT` -0.184

* * *

Test system: RARb homodimer (NR concentration 270 nM)
Assay: PBM binding z-score (relative to random genomic background probes); higher = stronger binding; sequences stand for … in GC…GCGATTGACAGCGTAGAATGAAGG
Parameter threshold = 0.8. Response is t when PBM binding z-score meets or exceeds it, else f.

Could you tell me if the measured PBM binding z-score of `GCTAGTTGGTCAGTAAAAGGTCACGCACCGGTCG` reaches 0.8 or more? t

Try this sequence next: `GATACAGGGTCAAGGCCAGAGTTCGCGTATTGAT` t

Try this sequence next: `TCAAATAGGTAATACAGGTGAAAGTCGGCATCTA` f

Try this sequence next: `TCGAGTAGCTTAGTCGGGGCATTCAGCCAACATA` f

Try this sequence next: `CAAACTAGGTCCAGGTCAAAGTCGGTTTGTGCCA` t

Try this sequence next: `TATACAGGGTCAAACGCCAGAGTACGAATGTCGA` t

Try this sequence next: `CGTCCAAGGTCAATGCTAGGTCAATGAAAGCATT` t

Try this sequence next: `TCGAGGAGGTTAGTCGGGGCATTCAGCCAACATA` t

Try this sequence next: `TCTTGTAGATCTAGCAGGTTAAGAAAGCCTGAGT` f

Try this sequence next: `GCAGACAGGTGAAACGCAGGTAACTCATGGTGGC` f

Try this sequence next: `TTACCAGGGTGAAGGTCGTTGATCCCTCTGTAGA` t

Try this sequence next: `ATCTCTAGTTAAAGTTCAGTGAAAGATCGATAGA` t

Try this sequence next: `CCGAGTTGGTCAGGAGGTCACACACCGGATATGA` t

Try this sequence next: `TCTTGTGGATCAAGCAGGTTAAGAAAGCCTGAGT` f

Try this sequence next: `ATCGAAAGGTCGACGAGGTGAGTATTCACCGTTT` t

Try this sequence next: `ATCTCTAGGTAACCAAGTTCAGTGAATGCCGAAC` t

Try this sequence next: `ACTATTAGTTCAGACGAGGGCAACCGATAGGTTG` t

Try this sequence next: `CGAACTAGGTCATTGACACGACAGTGAATAGTAA` t

Try this sequence next: `CATACTGGGCCAAGGTCATTGATCAGTCAAAGCA` t

Try this sequence next: `GCAGACAGGTGAAACGCACGTAACTCAGGGTGGC` f

Try this sequence next: `ATCTGTAGGTTAAGGGTCATTCAGGTTGGTTCGC` t

Try this sequence next: `TCATATAGGTAATACAGGAGAAAGTCGGCATCTA` f

Try this sequence next: `CTCGAAAGGTCGGTTAAGGTGAGTATACGGATAA` t

Try this sequence next: `ATCGAAAGGTCGAAGGTGAGTTTACCCACCCGAA` t
